Reference source: patent EP0007672A1

- Test system: Trichophyton equinum
- METHOD_DESCRIPTION: MIC (Minimum Inhibitory Concentration)
- Assay type: cell-based
- CONDITION_DESCRIPTION: Trichophyton equinum 441-51, read-out: MIC values
MEASURED_PROPERTY: MIC (µg/mL)

These recorded examples may help you get a feel for the data.
[C-]#[N+]C(=C(CCCC)c1ccccc1)S(=O)(=O)c1ccc(C)cc1; 3
[C-]#[N+]C(=Cc1cccn1C)S(=O)(=O)c1ccc(C)cc1; 0.4
[C-]#[N+]C(=C(C)c1ccc([N+](=O)[O-])cc1)S(=O)(=O)c1ccc(C)cc1; 1.5
[C-]#[N+]C(C1=CCOCC1)S(=O)(=O)c1ccc(C)cc1 (stereo not drawn) [Example 14b]; 3
[C-]#[N+]C(=Cc1ccc(OC)cc1)S(=O)(=O)c1ccc(C)cc1; 1.5

(A) [C-]#[N+]C(=Cc1ccc(Cl)cc1)S(=O)(=O)c1ccc(C)cc1
(B) [C-]#[N+]C(=C(C)c1cccs1)S(=O)(=O)c1ccc(C)cc1
**Q:** Looking at recorded values for MIC, does A or B come in lower? Reply with the label of the item you choose.
**A:** A
